# test.target: Guanine nucleotide-binding protein G(i) subunit alpha-1 (Homo sapiens) (UniProt P63096)
# Sequence (P63096 whole entry, looked up): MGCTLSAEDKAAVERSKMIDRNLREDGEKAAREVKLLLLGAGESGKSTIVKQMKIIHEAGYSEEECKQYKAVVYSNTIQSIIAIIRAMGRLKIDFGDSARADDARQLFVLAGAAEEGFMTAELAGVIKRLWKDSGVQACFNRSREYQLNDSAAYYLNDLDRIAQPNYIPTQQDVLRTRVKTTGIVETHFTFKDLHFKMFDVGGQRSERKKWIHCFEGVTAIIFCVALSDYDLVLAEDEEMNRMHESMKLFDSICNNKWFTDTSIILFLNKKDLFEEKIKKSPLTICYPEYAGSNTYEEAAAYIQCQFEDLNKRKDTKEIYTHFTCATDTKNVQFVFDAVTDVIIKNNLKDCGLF
# procedure.summary: qHTS Assay for Inhibitors of RGS12 GoLoco Motif Activity (Red Fluorophore); further: nearly all actives have a fitted effect of over 30% in size; on activity, negative = inhibition: on the % scale 0 is the no-effect control and ±100 the full control effect
# run.conditions: Gai1:RGS12 GoLoco peptide FP, rhodamine, 10 min; series mostly up to 61.6 µM
About 1,000 (0.43%) of roughly 230,000 compounds were called active. This excerpt belongs to a sample that is enriched for actives.

| molecule | activity, negative = inhibition |
| --- | --- |
| CC(=O)O[C@H]1CC[C@@]2(C)[C@@H](CC[C@H]3[C@H]2CC(=O)[C@]2(C)[C@@H]3C[C@@H](N3CC3)[C@H]2C(C)=O)C1 | 4.86% [at 14.2 µM] (inactive) |
| CC[C@@](O)(C(=O)O)c1cc2n(c(=O)c1CO)Cc1cc3ccccc3nc1-2 | -0.459% [at 14.2 µM] (inactive) |
| CS(=N)(=O)CC[C@H](N)P(=O)(O)O (stereo not given in full) | 3.42% [at 14.2 µM] (inactive) |
| Fc1ccc(C(OCCN2CCN(C/C=C\c3ccccc3)CC2)c2ccc(F)cc2)cc1 | inactive |
| ClC(Cl)=C(Cl)C(Cl)=C(Cl)Cl | inactive |
| CC(C)(c1ccccc1)c1ccc(O)cc1 | inactive |
| COc1ccccc1N=Nc1c(O)[nH]c(=S)[nH]c1=O | inactive |
| CN(C)[C@@H]1C(=O)C(C(N)=O)=C(O)[C@@]2(O)C(=O)C3=C(O)c4c(O)cccc4[C@@](C)(O)C3CC12 (stereo not given in full) | inactive |
| CC(C)(Cc1c[nH]c2ccc(Cl)cc12)NCCOc1ccccc1OCC1CC1 | inactive |
| CCCCN1C2CCC1CC(OC(c1ccc(F)cc1)c1ccc(F)cc1)C2 (stereo not given) | inactive |
| Cc1ccc(S(=O)(=O)O[C@H]2CN3CCC2CC3)cc1 | -0.505% [at 14.2 µM] (inactive) |
| O=C(O)C1C2CCC(O2)C1C(=O)O (stereo not given) | inactive |
| C[C@@]12CC[C@H](O)C[C@@H]1CC[C@@H]1[C@@H]2CC[C@@]2(C)[C@@H](C3=CC(=O)OC3)[C@H](O)C[C@]12O | 3.75% [at 14.2 µM] (inactive) |
| OC(CNC1CCCCC1)c1ccccc1 (stereo not given) | inactive |
| CN(C)C1C(=O)C(C(N)=O)=C(O)[C@@]2(O)C(=O)C3=C(O)c4c(O)cccc4[C@@](C)(O)C3C[C@@H]12 (stereo not given in full) | inactive |
| CC(C)(O)/C=C\C(=O)[C@](C)(O)[C@H]1[C@H](O)C[C@]2(C)[C@@H]3CC=C4[C@@H](C=C(O)C(=O)C4(C)C)[C@]3(C)C(=O)C[C@@]12C | 6.59% [at 14.2 µM] (inactive) |
| CC(C)CC(C)Nc1ccc(Nc2ccccc2)cc1 (stereo not given) | inactive |
| O=C(O)C(=O)Cc1ccc2c(c1)OCO2 | -7.42% [at 14.2 µM] (inactive) |
| CO[C@@H]1C[C@@H](C[C@H]2CC[C@H](C)[C@@H]([C@@H](C)C(=O)O)O2)O[C@]2(O[C@](C)([C@H]3CC[C@@](C)(C4OC([C@H]5O[C@@](O)(CO)[C@H](C)C[C@@H]5C)C[C@@H]4C)O3)C[C@H]2C)[C@@H]1C (stereo not given in full) | inactive |
| CN1[C@@H]2CC[C@H]1CC(OC(=O)c1cc(Cl)cc(Cl)c1)C2 (stereo not given in full) | inactive |

###

# test.target: Guanine nucleotide-binding protein G(i) subunit alpha-1 (Homo sapiens)
# procedure.summary: qHTS Assay for Inhibitors of RGS12 GoLoco Motif Activity (Red Fluorophore); further: nearly all actives have a fitted effect of over 30% in size; further: potency means the concentration at half of the fitted maximal effect
# run.conditions: Gai1:RGS12 GoLoco peptide FP, rhodamine, 10 min; series mostly up to 61.6 µM
Among all 230,000 compounds or so, about 1,000 (0.43%) were called active. This is one part of a sample in which actives are shown more often than they occur.

| compound | Potency |
| --- | --- |
| C[N+]12CN3CN(CN(C3)C1)C2 | 8.91 µM (active) |
| CC(=O)OC1C2CCC3C1(CC(O)[C@@]1(O)[C@@H](CC(O)C1(C)C)[C@]3(C)O)C[C@@]2(C)O (stereo not given in full) | 25.1 µM (active) |
| NCC[Se][Se]CCN | 0.631 µM (active) |
| CNC(C)[C@@H](O)c1ccccc1 (stereo not given in full) | 7.94 µM (active) |
| Cc1cc(-c2ccc(N)c(C)c2)ccc1N | 25.1 µM (active) |
